- Assay info: Drug level in Sprague-Dawley rat plasma at 100 mg/kg, po measured 2 hrs post dose by LC-MS/MS analysis
- Type: ADME, organism-based
Quantity measured: concentration at 2 h (nM)
Answers are plain numbers, in nM.

Recorded concentration at 2 h (molecule Cl.Cn1cc(S(=O)(=O)N2CCN(C3(CNC(=O)c4ccc(C(F)(F)F)cc4Cl)CCC(F)(F)CC3)CC2)nn1 ): 334

----------
- Assay info: Apparent terminal half life in Sprague-Dawley rat plasma at 10 mg/kg, po or 2 mg/kg, iv administered as single dose by LC-MS/MS analysis
- Assay type: ADME, organism-based
- Experimental context: read-out: betat1/2(app) (converted)
Quantity measured: half-life (h)
Answers are plain numbers, in h.

CC(NC(=O)c1ccc(C(F)(F)F)cc1Cl)C1(N2CCN(S(=O)(=O)c3cn(C)nn3)CC2)CCC(F)(F)CC1.Cl (single isomer, unassigned; (+)) has a reported half-life of 4.33

The values you see were collected from ChEMBL document CHEMBL4428077.
